Tested on: P388 leukemia ip, CD2F1 mice, survival T/C
Test: NCI In Vivo Anticancer Drug Screen. Data for tumor model P388 Leukemia (intraperitoneal) in CD2F1 (CDF1) mice
Conditions: endpoint: median survival time; dose: 120.0 mg/kg/injection; schedule: Q01DX005 (ip); vehicle: Klucel (hydroxypropylcellulose) (HPC); higher = longer survival
Inconclusive results and toxic doses are left out.
parameter: T/C

T/C recorded for this compound, COc1ccc2c(c1)SC1=NNC(=O)CN12 , is 89 % of control

For reference, reported T/C for C1COCCOCCOCCO1.[Br][Sn]([Br])([Br])[Br] stands at 107 % of control

Recorded T/C (compound Fc1ccc2nc3ccccc3c(SCCCCCSc3c4ccccc4nc4ccc(F)cc34)c2c1 ): 90 % of control

The compound listed as COC(=O)C1(C(=O)OC)O[C@@H](c2ccccc2)[C@H]2C(=O)N(C)C(=O)[C@H]21 has a reported T/C of 101 % of control

response.value for COC(=O)C1C(=O)C(C(=O)OC)C2(C)C(C(=O)OC)C(=O)C(C(=O)OC)C12C (configuration not stated) (field: T/C) = 102 % of control

Value of measured T/C for the entry CCOc1c(N=Nc2ccc(OC)cc2)c(C)nn1C(=S)S : 112 % of control

# compound CN1c2ccccc2SC1(C)CCC(=O)O (configuration not stated) ; its T/C = 104 % of control

Documented T/C of C=C=CN1C(C)=CC(=C2C(=O)c3ccccc3C2=O)C=C1C : 97 % of control

Sample CCc1nc2c(Br)c3oc(CC)nc3c(C)c2o1 ; T/C observed: 95 % of control

Recorded result, Cc1ccc(NC(=O)OCCN(C)C(=O)Nc2ccc(C)cc2C)c(C)c1 , T/C: 98 % of control

T/C in this record for OC1c2ccccc2C(O)c2c1ccc1c2CN(Cc2ccccc2)CC1 (configuration not stated) : 92 % of control

Given item CCC(C)Nc1c(N)cc(C(F)(F)F)cc1N (configuration not stated) , the value recorded as its T/C is 97 % of control

According to the records, this compound c1ccc(-c2cnc3cccnc3n2)cc1 displays T/C of 99 % of control

Item: O=C1c2c(O)cccc2C(Br)c2cccc(O)c21 | T/C: 114 % of control

Entry O=C1C(N=Nc2ccccc2)Sc2nc3ccccc3n21 (configuration not stated) ; T/C = 86 % of control

Recorded T/C (compound O=c1[nH]c2c([N+](=O)[O-])cc(Cl)cc2nc1/C=C(\O)c1ccncc1 ): 99 % of control

// field: T/C; key: Cc1cc2c(=O)cc(-c3ccc(Cl)cc3)oc2c(C#N)c1C ; value = 93 % of control

Noted for O=C1C(=O)N(c2ccccc2)[C@@]2(c3ccccc3)C(=Nc3ccccc3)OC(c3ccccc3)=C12 : its T/C reads 90 % of control

Lookup result for Cc1ccccc1C1OC2=C(Nc3ccc(Cl)cc3N2)C1=O (configuration not stated) ; measured T/C: 91 % of control

Cc1c(C)c(C)c(C(=O)c2ccccc2C(=O)NCCSC(C)(C)C)c(C)c1C yielded T/C of 92 % of control

Value of T/C reported for the compound CN1NC(c2ccccc2)NN(C)C1=S is 98 % of control

# T/C (compound: CC(C)(C)COc1ccc2c(c1)C1=NC2=NC2=NC(=NC3=NC(=NC4=NC(=N1)c1ccc(OCC(C)(C)C)cc14)c1ccc(OCC(C)(C)C)cc13)c1ccc(OCC(C)(C)C)cc12 ) is 88 % of control

---

Test system: P388 leukemia ip, CD2F1 mice, survival T/C
Experiment: NCI In Vivo Anticancer Drug Screen. Data for tumor model P388 Leukemia (intraperitoneal) in CD2F1 (CDF1) mice
Details: endpoint: median survival time; dose: 100.0 mg/kg/injection; schedule: Q01DX009 (ip); vehicle: saline with Tween-80
Toxic doses and inconclusive results are not listed. The calls were made as follows: active = survival T/C of 150% or more; inactive = T/C below 125% in these data.
Would you mind answering with one of these outcomes? active, inactive

Recorded test outcome, item CS(=O)(=O)OCCN(CCOS(C)(=O)=O)c1cccc(C(F)(F)F)c1
active

What call does the record list for CCOC12NC(=O)N(C)C1(OCC)C(=O)N(C)C(=O)N2C (stereo not given) ?
inactive

Lab log entry: COc1ccc(Cc2nncc3ccccc23)cc1OC — outcome as called in the assay?
inactive

Which result was noted for this compound in the test: CS(=O)(=O)OCCCCO
inactive

GET /call?item= CCOC(=O)C(=CN(C)c1ccccc1)C(=O)OCC returns the recorded outcome of this test.
inactive

What outcome does the record of this test show for O=C(C1=CCCCC1)c1ccc(-c2ccccc2)cc1 ?
inactive

Hi, sorry to bother you, what did the test record for O=C1c2cccc3c2C2(O)c4c1cccc4C(=O)c1cccc(c12)C3=O ?
inactive

Please let me know the test result on file for C[Si](C)(C)c1cnc(N)[nH]c1=O .
inactive

Assay result, entry CCCC(=O)C(=O)c1ccc(O)c(C)c1O — outcome?
inactive

Returns: the outcome recorded for COc1ccc(NC(CCN2CCN(CCC(=NC(C)(C)C)Nc3ccc(OC)cc3)CC2)=NC(C)(C)C)cc1 in this assay.
inactive

Please let me know the test result on file for CC1CC(C)(C)N=C(CCC2CCCC23OCCO3)O1 (stereo not given) .
inactive

// outcome(item) with item = COc1ccc(C(Br)C(C)Br)cc1 (stereo not given)
inactive

Outcome? CCN(CC)c1cc(Cl)ccc1Cl
inactive

Recorded call for CC(=O)CC(=O)CCCC(=O)O ?
inactive

I would be grateful if you could indicate the recorded call for COc1ccc(C2(C)C=C(C)C=C(C)C2=O)cc1 (stereo not given) .
inactive

Outcome? CCN(CC)C(=S)Oc1cc2oc(=O)cc(C)c2cc1Cl
inactive

Hi team, can someone confirm the assay call for CCCCc1ccc(Nc2ccc(Nc3ccc(CCCC)cc3S(=O)(=O)O)c3c2C(=O)c2ccccc2C3=O)c(S(=O)(=O)O)c1 ?
inactive

What was the test verdict on CC(O)C(c1ccccc1)S(C)(=O)=O (stereo not given) ?
inactive

Hi team, can someone confirm the assay call for O=C1NC(c2cccc3c2OCO3)N=C2Oc3ccccc3C=C12 (stereo not given) ?
inactive

Hey, what did the test say about O=c1c2ccccc2sc2cccc(Sc3ccccc3)c12 ?
inactive

Tell me the recorded outcome of this test for CCC(C)C(NC(=O)C(F)(F)F)C(=O)O (stereo not given) .
inactive

Hi team, can someone confirm the assay call for COc1ccc(NC(=O)Oc2ccc3c(C)cc(=O)oc3c2)c(OC)c1 ?
inactive

// param item: Cn1c([N+](=O)[O-])cnc1-c1nc(/C=N/N2CCS(=O)(=O)CC2)cs1 ; yields the recorded call
inactive

Hello, I am checking results. What call was entered for Cc1ccccc1NC(CCN1CCCCC1)=NC(C)(C)C ?
inactive

Returns: the outcome recorded for O=C1SC(c2ccccc2)(c2ccccc2)c2cscc21 in this assay.
inactive

Short answer needed: outcome of this test for Cc1ccc(N=Nc2c(O)n(-c3ccccc3C)c(=S)n(-c3ccc(Br)cc3)c2=O)cc1 ?
inactive

Which outcome was assigned to O=C1/C(=C/c2ccccc2[N+](=O)[O-])Cc2ccccc21 in this test?
inactive

Lab log entry: N#Cc1cnn(-c2cccc(Cl)c2)c1-n1cccc1 — outcome as called in the assay?
inactive

What did the test return for CCCCCCCCCOCC(=O)OC ?
inactive

Each compound tested received a call. Report the one for O=CC1(c2ccco2)SCCCS1 .
inactive

Hello, I am checking results. What call was entered for O=c1oc(-c2ccccc2)cc(N2CCCCC2)c1Cl ?
inactive

Please indicate how the test categorized Nc1nc(N)c2cc(S(=O)(=O)c3ccc(Cl)cc3)ccc2n1 .
inactive

Which result was noted for this compound in the test: C(=N\Nc1nc2ccccc2s1)/c1ccc(/C=N/Nc2nc3ccccc3s2)cc1
inactive

Tell me the assay call for Cn1ccoc1=NC1CCCCC1 please.
inactive

Please state the recorded outcome for this compound: CC1=NN(C(=O)c2ccncc2)C(=O)C1N=Nc1ccc2ccccc2c1 (stereo not given)
inactive

Record request — test call for O=c1[nH][nH]c(=S)n1-c1ccccc1
inactive

Hi, do you know how O=C(O)c1nc2ccccc2c(=O)[nH]1 came out in this test?
inactive

Please state the recorded outcome for this compound: S=P(c1ccccc1)(N1CC1)N1CC1
inactive

Recorded test outcome, item Cc1cc(Br)ccc1N
inactive

// param item: O=C1NC(=O)C2C1C1C3OC3C2C2C3C(=O)NC(=O)C3C12 (stereo not given) ; yields the recorded call
active

Record lookup: outcome of this test for CNC(=O)Oc1ccc(/C=N/Sc2cccc([N+](=O)[O-])c2)cc1 ?
inactive

Lab log entry: CN(C)C(=O)c1ccc([N+](=O)[O-])cc1 — outcome as called in the assay?
inactive

For COc1ccc(-c2c(CC(=O)O)c3cc(OC)ccc3n2Cc2ccc(Cl)cc2)cc1 , which call appears in the assay record?
inactive

Entry CCOC(=O)c1ccc(NC(=O)OCc2ccccc2)cc1 : call = ?
inactive

Recorded test call requested for COC(=O)c1c(C(=O)OC)c(-c2ccc(Cl)c(Cl)c2)n2c1CCC2
inactive

Outcome? COc1cc(C(=O)N/N=C/c2cccc([N+](=O)[O-])c2)cc(OC)c1OC
inactive

Called result for CC(C)(C)N=C(CCN1CCOCC1)Nc1cccc(Cl)c1
inactive

Fill in: this test's call for CC(C)=CCc1c2ccoc2c(O)c2oc(=O)ccc12 is ___
inactive

What is the recorded call for this compound in the test? CC(C#N)(Cc1ccccc1)Nc1ccccc1 (stereo not given)
inactive

Returns: the outcome recorded for COc1ccc(NC(=O)CCC(=O)Oc2ccccc2)cc1 in this assay.
inactive
